Where these numbers come from: patent US20110034472A1

Tested on: HEY ovarian cancer cells
Protocol Text: MTT cytotoxicity assay, HEY
Assay type: cell-based, human
Test Conditions: Homo sapiens; HEY ovarian cancer cells; read-out: 50% Cytotoxic concentration (IC50)
Quantity Measured: IC50 (µM)
Supply the numeric figure in µM, leaving out any unit text.

Reported IC50 for `CCC(=O)NNc1nc2c(c(=O)n1Cc1ccccc1)C1(CCCC1)Cc1ccccc1-2` : what is it?
6

Same for `COc1ccc(C(=O)NNC(=O)c2cc3ccccc3cc2O)cc1`
13

Ok, now `Cc1ccc(-n2c(SCC(=O)NNC(=O)Cc3ccccc3)nc3sc4c(c3c2=O)CCCC4)cc1`
2

Continue with `Cc1ccc(C(=O)NNC(=O)CSc2nnc3c4c5c(sc4nc(C4CC4)n23)CCCC5)cc1`
2

Moving on to `O=C(CSc1nnc(-c2ccccc2O)o1)NNC(=O)Cc1ccccc1`
4

Also, `O=C(CCl)NNc1nc(-c2ccccc2)c2cc(Cl)ccc2n1` please.
6

Now try `O=C(NNC(=O)c1cc2ccccc2oc1=O)c1ccc(S(=O)(=O)N2CCCCC2)cc1` .
3

Would you mind doing `Cc1ccc(C(=O)n2nnc3c(NNC(=O)COc4ccc(F)cc4)nc(C4CC4)nc32)cc1` as well?
6

Also `Cc1occc1C(=O)NNC(=O)c1ccccc1F` , if possible.
17

Now the compound `COc1ccc(C(=O)NNC(=O)c2cc3ccccc3oc2=O)cc1OC`
4
